Tested on: Nicotinamide N-methyltransferase (Homo sapiens)
Test details: Confirmatory Screen for Target Class Profiling of Small Molecule Inhibitors of Methyltransferases (AID 1745852)
Condition details: MTase-Glo luminescence, SAH detection, recombinant enzyme; measured here: NNMT max response; stronger effect = lower value
The label Met is reserved for activity strictly under -20%; Not met covers values equal to or above it.

>>> print(df.to_string())
                                    compound  class_assignment
 0  CC1CC(C)CN(S(=O)(=O)c2ccc3c(c2)oc(=O)n3CC(=O)Nc2ccc(Cl)cc2)C1 (centres undefined)           Not met
 1  c1ccc(CN2CCc3c(sc4ncnc(N5CCOCC5)c34)C2)cc1               Met
 2  O=C(NCc1ccc2c(c1)OCO2)c1sc(=S)n2c1[nH]c(=O)c1cc(Cl)ccc12               Met
 3  O=C1c2ccccc2C(=O)c2cc(S(=O)(=O)Nc3ccc(Br)cc3)ccc21           Not met
 4  COc1ccc(S(=O)(=O)N2CCC(n3c(=O)[nH]c4ccccc43)CC2)cc1           Not met
 5  O=C(NCc1ccc(Cl)cc1)c1ccc2c(=O)[nH]c3c(C(=O)NC4CCCC4)sc(=S)n3c2c1               Met
 6  CCCC1c2cccn2CCN1C(=O)Nc1ccc(Br)cc1F (centres undefined)           Not met
 7  Cc1cccc(N2CCN(C(=O)CCc3nnc4n(CCC(C)C)c(=O)c5ccccc5n34)CC2)c1C               Met
 8  Cc1ccc(Cn2c(=O)c3ccccc3n3c(CCC(=O)NCCN4CCCC4)nnc23)cc1           Not met
 9  COc1ccc(S(=O)(=O)NC[C@H]2Cn3c(-c4ccc(Cl)cc4)cnc3CO2)cc1               Met
10  CCCCCNC(=O)c1sc(=S)n2c1[nH]c(=O)c1ccc(C(=O)OC)cc12               Met
11  Cc1ccsc1CCNC(=O)Cn1c(=O)oc2cc(S(=O)(=O)N3CCCC3)ccc21           Not met
12  O=C(CCc1nnc2n(Cc3ccccc3Cl)c(=O)c3ccccc3n12)NCCc1c[nH]c2ccccc12           Not met
13  CCc1ccc(N2C(=O)c3cc4sccc4n3CC2(C)C(=O)NC2CCCCCC2)cc1 (centres undefined)           Not met
14  O=C(CCc1nnc2n(Cc3ccccc3Cl)c(=O)c3ccccc3n12)N1CCC(N2CCCCC2)CC1           Not met
15  COc1ccc2c(c1)C(CN1CCN(c3ccc4oc(C(=O)O)cc4c3Cl)CC1)=CC(C)(C)CO2           Not met
16  CC(CNC(=O)c1nnn2c1c(=O)[nH]c1cc(F)ccc12)c1ccccc1 (centres undefined)           Not met
17        O=c1cc(O)cc(/C=C\c2ccc(O)c(O)c2)o1           Not met
18  O=C(Nc1ccccc1)c1cnc2c(c1)N(C(=O)Cc1ccc(O)cc1)CCC2           Not met
19    COCCCNC(=O)c1cnc2n[nH]c(-c3ccccc3)c2n1               Met
20    COC1CCN(c2cc(-c3ccsc3)nc3c(C)noc23)CC1           Not met
21  Cc1cnc(C2CC2)n1C1CCN(S(=O)(=O)c2ccc3c(c2)OCCO3)CC1               Met
22  CCCNc1cc(N2CCC(CCC(=O)NCCN3CCCCCC3)CC2)ncn1           Not met
23  O=C(NCc1ccccc1)c1ccc2c(=O)nc3c(-c4ccccc4F)n[nH]n3c2c1           Not met
24  CCN(CC)CCCNC(=O)CCc1nnc2n(Cc3ccc(Cl)cc3)c(=O)c3ccccc3n12           Not met
25  Cc1cnc(CCNC(=O)Nc2ccc3c(c2)OCCO3)n1C1CCC1           Not met
26  O=C(CCn1c(=O)[nH]c2cc(S(=O)(=O)N3CCCCC3)ccc21)Nc1ccc(Cl)cc1           Not met
27  Cc1ccc(S(=O)(=O)c2nnn3c2nc(N2CCC(N4CCCCC4)CC2)c2ccccc23)cc1C           Not met
28  CC(CNC(=O)CCc1nnc2n(Cc3ccc(F)cc3)c(=O)c3ccccc3n12)c1ccccc1 (centres undefined)               Met
29           Cc1cnc(CCNC(=O)c2cccs2)n1C1CCC1           Not met
30  CC(C)Cn1c(=O)c2ccccc2n2c(=O)n(CC(=O)c3cccc(Cl)c3)nc12               Met
31  CC(C)c1nccn1CCCNc1nc(-c2ccncc2)nc2c1cnn2C               Met
32  COc1ccc(-c2cc3nc4c(c(=O)n3[nH]2)CN(C(=O)CN(C)S(=O)(=O)c2cnc[nH]2)CC4)cc1               Met
33   Cc1nccn1CCC1CCN(c2nccc(-c3ccccn3)n2)CC1           Not met

---

In this section, each of the molecules is paired with its reported Potency.
Tested on: Glucocorticoid receptor (Homo sapiens)
Test details: GR-GFP Redistribution (AID 450); further: potency means the concentration at half of the fitted maximal effect
Condition details: U2OS GR-GFP nuclear translocation, laser cytometry, 2 h
The source made the active and inactive calls.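 The calls were made as follows: active = compounds whose dose series gives a full or clear partial fitted curve of increased nuclear translocation; inconclusive = weak partial curve or effect only at the top dose; inactive = no dose-dependent translocation response.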
Readout type: Potency

>>> df
                                    molecule             obs_value
 0    COc1ccccc1-c1nc(N2CCN(C)CC2)c2ccccc2n1    > 46 µM (inactive)
 1  COc1ccc2[nH]cc(CCNc3ncncc3-c3cccc(C#N)c3)c2c1    > 46 µM (inactive)
 2     COc1ccc(CNc2ncncc2-c2ccccc2OC)c(OC)c1    > 46 µM (inactive)
 3  O=C(O)CC1Sc2nc3ccccc3n2C1=O (centres undefined)  > 20.6 µM (inactive)
 4  COc1ccccc1CNc1nc(-c2cccc(NS(C)(=O)=O)c2)nc2ccccc12    > 46 µM (inactive)
 5  CN1CCN(c2ncc3nc(CCc4ccccc4)c(=O)n(Cc4cccs4)c3n2)CC1  > 9.22 µM (inactive)
 6  CN1CCN(c2ncc3nc(-c4cn(C)c5ccccc45)c(=O)n(C[C@H]4CCCO4)c3n2)CC1    > 46 µM (inactive)
 7  c1ccc2c(NCCN3CCOCC3)nc(-c3ccc4c(c3)OCO4)nc2c1    > 46 µM (inactive)
 8  COc1ccc(CNc2cc(-c3cccc(NS(C)(=O)=O)c3)ncn2)c(OC)c1    > 46 µM (inactive)
 9  Cn1cc(-c2nc3cnc(N4CCNCC4)nc3n(C3CC3)c2=O)c2ccccc21  > 9.22 µM (inactive)
10       O=c1cnc2cnc(Oc3ccccc3)nc2n1Cc1cccs1  > 9.22 µM (inactive)
11  COc1ncc2nc(-c3ccccc3)c(=O)n(CCc3ccccc3)c2n1  > 9.22 µM (inactive)
12  N#Cc1cccc(-c2nc(NCCN3CCOCC3)c3ccccc3n2)c1    > 46 µM (inactive)
13  COc1cccc(Cn2c(=O)c(CCc3ccccc3)nc3cnc(N(C)C)nc32)c1  > 9.22 µM (inactive)
14  CN(C)c1ncc2nc(CCc3ccccc3)c(=O)n(CCC#N)c2n1  > 9.22 µM (inactive)
15  CN1CCN(c2ncnc3ccc(-c4ccccc4C(F)(F)F)cc23)CC1    > 46 µM (inactive)
16  N#CCCn1c(=O)c(-c2ccc(Cl)cc2)nc2cnc(N3CCOCC3)nc21  > 9.22 µM (inactive)
17  CCN(CC)c1ccc2cc(C(=O)Nc3ccccn3)c(=O)oc2c1  > 20.6 µM (inactive)
18  CN(Cc1ccco1)c1nc(-c2ccccc2C(F)(F)F)nc2ccccc12    > 46 µM (inactive)
19  COCCn1c(=O)c(-c2cccc(C#N)c2)nc2cnc(Oc3cccc(Cl)c3)nc21  > 9.22 µM (inactive)
20                 CC1=C(C#N)C(=O)OC(C)(C)C1  > 20.6 µM (inactive)
21    COC(=O)c1cc(Br)c(=O)n(CCc2ccc(F)cc2)c1  > 20.6 µM (inactive)
22                   O=C(/C=N/O)NCCCN1CCOCC1  > 20.6 µM (inactive)
23  CN(C)C(=O)c1ccc(-c2cc(NCc3ccccc3)ncn2)cc1    > 46 µM (inactive)
24      COc1ccccc1CNc1ncncc1-c1ccc2c(c1)OCO2    > 46 µM (inactive)
25  COCCn1c(=O)c(-c2ccc(F)cc2)nc2cnc(Oc3ccccc3)nc21  > 9.22 µM (inactive)
26  N=C(N)c1ccc(N=Nc2c(O)ccc3c2[nH]c2ccccc23)cc1    > 46 µM (inactive)
27  Cc1cnc(CNc2ncnc3ccc(-c4ccccc4Cl)cc23)cn1    > 46 µM (inactive)
28         COc1cccc(-c2cncnc2NCc2ccccc2OC)c1    > 46 µM (inactive)

meta.source: PubChem BioAssay (NCATS)
